experimental.target: PCSK9 (Homo sapiens (Human))
Sequence (Q8NBP7 153-692): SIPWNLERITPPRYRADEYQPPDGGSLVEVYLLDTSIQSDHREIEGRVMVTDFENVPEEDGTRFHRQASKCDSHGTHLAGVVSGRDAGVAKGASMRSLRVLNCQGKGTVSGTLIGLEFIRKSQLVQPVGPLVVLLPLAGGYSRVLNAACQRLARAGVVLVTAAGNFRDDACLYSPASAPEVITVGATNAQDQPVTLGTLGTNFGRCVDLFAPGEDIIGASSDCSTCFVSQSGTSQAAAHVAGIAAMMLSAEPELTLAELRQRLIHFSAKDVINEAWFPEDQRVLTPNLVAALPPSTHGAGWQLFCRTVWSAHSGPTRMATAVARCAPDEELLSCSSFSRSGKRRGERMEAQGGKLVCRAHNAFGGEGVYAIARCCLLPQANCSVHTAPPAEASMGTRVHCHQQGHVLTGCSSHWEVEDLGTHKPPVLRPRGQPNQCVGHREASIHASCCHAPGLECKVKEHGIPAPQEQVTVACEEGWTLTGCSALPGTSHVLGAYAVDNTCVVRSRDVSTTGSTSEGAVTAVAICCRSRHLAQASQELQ
experiment.description: PCSK9 Alexa FRET Standard assay (displacement of AlexaFluor647 tagged cyclic peptide Reagent A)
Format: binding
run.conditions: PCSK9 Alexa FRET Standard assay, 0.5 nM PCSK9, 20 nM AF cyclic peptide Reagent A; read-out: IC50
Starred links: 1 amine or outer side, 2 acyl side, 3 side chain; linkers in the order of their positions; H or OH if unused. Positions of bridges follow the written chain, without caps; N, C: chain ends. Non-standard residues stand in square brackets, D forms with d. Residues, ends and D or L forms follow the SMILES beside them. *: point of attachment. Trp(5-F) = N[C@@H](Cc1c[nH]c2ccc(F)cc12)C(=O)O; dPro(cis-4-NH2) = N[C@H]1CN[C@@H](C(=O)O)C1; Pro(cis-4-F) = O=C(O)[C@@H]1C[C@H](F)CN1; X4 = O=C(CCSCc1cccc(CSCCN[*:1])c1)[*:2]; Propanoyl(3,3,3-F3) = O=C(CC(F)(F)F)*; AEF = NCCOc1ccc(C[C@H](N)C(=O)O)cc1; αMeP = C[C@@]1(C(=O)O)CCCN1
Could you please report measured IC50 for the items listed next?

{"columns": ["compound", "IC50"],
 "data": [
  ["COc1ccc(C[C@@H]2NC(=O)[C@H]([C@@H](C)O)NC(=O)[C@@H]3C[C@H](F)CN3C(=O)[C@H](Cc3c[nH]c4ccc(F)cc34)NC(=O)[C@H](Cc3c[nH]c4ccc(F)cc34)NC(=O)[C@@H](C)NC(=O)[C@H](CCCCN)NC(=O)[C@@H](NC(=O)CC(F)(F)F)CC(=O)NCCOc3ccc(cc3)C[C@@H](C(N)=O)NC(=O)[C@]3(C)CCCN3C2=O)cc1 [Compound 114] ({Propanoyl(3,3,3-F3)}-DK[dA][Trp(5-F)][Trp(5-F)][Pro(cis-4-F)]TY(Me)[αMeP][AEF]-NH2; lactam 1-10)", "21 to 50 µM"]
]}

Now for a further compound.
Look up IC50 of COc1ccc(C[C@@H]2NC(=O)[C@@H]([C@H](C)O)NC(=O)[C@H]3C[C@@H](N)CN3C(=O)[C@H](Cc3c[nH]c4ccc(F)cc34)NC(=O)[C@H](Cc3c[nH]c4ccc(F)cc34)NC(=O)[C@@H](C)NC(=O)[C@H](CCCCN)NC(=O)CCSCc3cccc(c3)CSCCNC(=O)[C@]3(C)CCCN3C2=O)cc1 [Compound 083] (cyclo(K[dA][Trp(5-F)][Trp(5-F)][dPro(cis-4-NH2)][dT]Y(Me)[αMeP][X4])) and report it.
0.1 to 1 µM
